Where these numbers come from: the supplement of paper PMC9732359

- Method Notes: protein stability index of a GFP-peptide fusion (yeast GPS) (PSI 1-4); higher = more stable; sorted into four equal gates, so the index is relative within each strain
- Run Parameters: san1∆
protein stability index below 3 gives 0; protein stability index at or above it gives 1.

             sequence_content  label
0    ARDLFLKIYYKEEFSSD [RRI2]      0
1   IHKRYIDLEAPVQIVKR [RPS20]      0
2    VPGPGTKLIQYEHNGRT [CSL4]      1
3    SMGTMICGYTRKEGPTI [PRE2]      1
4  LKLLVKLYTFLARRTDA [RPL18A]      0
